molecular target: IDH1 wt/IDH1 R132H heterodimer (Homo sapiens (Human), UniProt O75874, R132H); experiment: In vitro assay for IDH1m R132H inhibitors, IDH1 wt/IDH1 R132H heterodimer, NADPH depletion (diaphorase/resazurin); assay type: biochemical; conditions: IDH1 wt/R132H heterodimer, NADPH/NADP, not saturated; read-out: IDH1 wt/R132H NADPH/NADP IC50 not saturated
Sequence (O75874 whole entry R132H): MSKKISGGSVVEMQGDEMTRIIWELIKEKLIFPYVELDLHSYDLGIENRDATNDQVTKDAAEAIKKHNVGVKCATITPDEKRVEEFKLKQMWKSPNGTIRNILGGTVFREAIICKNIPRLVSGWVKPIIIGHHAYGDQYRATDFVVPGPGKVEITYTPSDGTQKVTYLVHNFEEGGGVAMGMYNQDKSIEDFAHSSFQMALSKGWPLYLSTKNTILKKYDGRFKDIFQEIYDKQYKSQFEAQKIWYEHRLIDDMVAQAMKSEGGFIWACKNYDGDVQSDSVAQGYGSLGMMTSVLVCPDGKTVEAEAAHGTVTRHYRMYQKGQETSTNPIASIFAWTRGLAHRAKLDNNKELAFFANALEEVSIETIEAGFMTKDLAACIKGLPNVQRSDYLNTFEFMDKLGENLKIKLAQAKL
Sequence (O75874 whole entry, stated change not applied): as the sequence (O75874 whole entry R132H) above, with H132R counted along it
Reported IC50 values for the following compounds.

Give IDH1 wt/IDH1 R132H heterodimer (Homo sapiens (Human), UniProt O75874, R132H) IC50 for C[C@@H](Nc1nc(N[C@H](C)C(F)(F)F)nc(-c2csc(C(F)(F)F)n2)n1)C(F)(F)F < 0.05 µM

CC(Nc1nc(Nc2cc(F)cc(F)c2)nc(-n2ccc(C(F)(F)F)n2)n1)C(F)(F)F (centres unmarked) , same question. < 0.05 µM

Consider next the compound CC(C)Nc1nc(Nc2ccnc(C(C)(F)F)c2)nc(-c2nccc(C(F)(F)F)n2)n1 in the same way. 0.1 to 1 µM

Note, next up: CS(=O)(=O)N1CCC(Nc2nc(NC3CCC(F)(F)CC3)nc(-c3cccc(C(F)(F)F)n3)n2)CC1 0.1 to 1 µM
